experiment: gradient 5% acetonitrile 3 min, to 50% in 2 min, to 85% in 15 min, held 3 min, 100 µL/min
test.parameters: column: Zorbax Extend-C18 2.1 x 50 mm; eluents: water / acetonitrile, 0.1% formic acid
Is RP-LC retention time at least 800 s? Then Condition met. If not, Condition not met.

Use the examples below as a reference point.
O=C(CN1C(=O)C2CCCCN2c2ccc(C(=O)N3CCOCC3)cc21)NCc1ccc(F)cc1 (stereo not given): Condition not met
Cc1ccc(Cn2c(CCCC(=O)N3CCN(c4ncccn4)CC3)nc3cccnc32)cc1: Condition not met
Cc1cc2nc(C(=O)Nc3cc(F)ccc3C)cc(C)n2n1: Condition met
CC(C)NC(=O)CN1CCN(c2ncc(C(=O)Nc3ccccc3)c(N)n2)CC1: Condition not met

Is it the case that `O=C(c1ccc(F)c(F)c1)N1CCC2(CC1)NC(=O)N(Cc1ccc(F)cc1)C2=O` has RP-LC retention time reaching or exceeding 800 s?
Condition met

Is it the case that `COc1cccc(OC(=O)c2cn(CC(C)C)c(=O)c3ccccc23)c1` has RP-LC retention time reaching or exceeding 800 s?
Condition met

Is it the case that `CCCn1cc(CCNC(=O)c2cncc(Br)c2)c2cccnc21` has RP-LC retention time reaching or exceeding 800 s?
Condition not met

Is it the case that `CCCCN(C)C(=O)CSc1ncc(S(=O)(=O)c2cccs2)c(N)n1` has RP-LC retention time reaching or exceeding 800 s?
Condition not met

Is it the case that COc1ccccc1-c1noc(C2CCCN2C(=O)Nc2cccc(C)c2C)n1 (stereo not given) has RP-LC retention time reaching or exceeding 800 s?
Condition met

Is it the case that `COc1ccc(C(=O)NCc2c(C)noc2C)cc1F` has RP-LC retention time reaching or exceeding 800 s?
Condition not met

Is it the case that Cc1ccc(-n2c(N3CCCC(C(=O)Nc4ccc(Cl)cc4)C3)nc3ccsc3c2=O)cc1 (stereo not given) has RP-LC retention time reaching or exceeding 800 s?
Condition met

Is it the case that `CCCn1c(CCNC(=O)c2cc(C)cc(C)c2)nc2cccnc21` has RP-LC retention time reaching or exceeding 800 s?
Condition not met

Is it the case that `O=C(c1nc(-c2ccnc(N3CCCCC3)c2)no1)N1CCN(C2CCCCC2)CC1` has RP-LC retention time reaching or exceeding 800 s?
Condition not met

Is it the case that `Cc1cc(C(=O)NCc2ccsc2)no1` has RP-LC retention time reaching or exceeding 800 s?
Condition not met

Is it the case that `CCOCCOC1CCN(C(=O)c2ccoc2)CC1` has RP-LC retention time reaching or exceeding 800 s?
Condition not met

Is it the case that `c1ccc2cc(CC3=NCCN3)ccc2c1` has RP-LC retention time reaching or exceeding 800 s?
Condition not met

Is it the case that `Cc1nnc(CNC(=O)OC(C)(C)C)n1-c1ccccc1` has RP-LC retention time reaching or exceeding 800 s?
Condition not met

* * *

experiment: gradient 5% acetonitrile 3 min, to 50% in 2 min, to 85% in 15 min, held 3 min, 100 µL/min
test.parameters: column: Zorbax Extend-C18 2.1 x 50 mm; eluents: water / acetonitrile, 0.1% formic acid
Is RP-LC retention time at least 800 s? Then y. If not, n.

Use the examples below as a reference point.
O=C(Nc1ccc2nc3n(c(=O)c2c1)CCCC3)Nc1ccccc1Br: n
CCOC(=O)c1ccc(NC(=O)Cc2csc3nc(-c4ccc(C)c(C)c4)cn23)cc1: y
COc1ccc(-c2cc(N3CCC(NC(=O)c4ccc(F)cc4F)C3)n[nH]2)cc1 (centres undefined): n
COc1ccc(-c2cc3nc(C)cc(Nc4ccc(C(N)=O)cc4)n3n2)cc1OC: n
Cc1cccc(NC(=O)CN2C(=O)CCCc3cc(S(=O)(=O)N4CCCC4)ccc32)c1C: y
COc1ccc(NC(=O)c2c(O)c3cccnc3n(-c3cccc(F)c3)c2=O)cc1F: y
COC(=O)c1sc2ccccc2c1NC(=O)c1cc(C)n(C)n1: y
CC(C)(C)c1cnc(CSc2cnc(NC(=O)C3CCNCC3)s2)o1: n
Cc1[nH]c(C(=O)N2CCC(CC(=O)N3CCCC3)CC2)c(C)c1C(=O)OC(C)C: n
COc1ccc(C2Cn3cnc(C(=O)N4CCC(C(=O)NCC(C)C)CC4)c3CO2)cc1 (centres undefined): n

Is it the case that `Clc1ccccc1-c1noc(-c2nc(-c3ccncc3)no2)n1` has RP-LC retention time reaching or exceeding 800 s?
y

Is it the case that `CCC(=O)Nc1ccc2c(c1)CCC(=O)N2CCOC` has RP-LC retention time reaching or exceeding 800 s?
n

Is it the case that `COC(=O)c1ccccc1NC(=O)Cn1cccc(-c2nc(-c3ccc(Cl)cc3)no2)c1=O` has RP-LC retention time reaching or exceeding 800 s?
y

Is it the case that `C=CCn1c(C)c(CC(=O)NCCC)c(=O)n2nc(-c3ccccc3)nc12` has RP-LC retention time reaching or exceeding 800 s?
n

Is it the case that `Cc1ccc(CN2CCN(CC(=O)N3CCN(c4ccccn4)CC3)C(=O)C2=O)cc1` has RP-LC retention time reaching or exceeding 800 s?
n

* * *

experiment: gradient 5% acetonitrile 3 min, to 50% in 2 min, to 85% in 15 min, held 3 min, 100 µL/min
test.parameters: column: Zorbax Extend-C18 2.1 x 50 mm; eluents: water / acetonitrile, 0.1% formic acid
Is RP-LC retention time at least 800 s? Then 1. If not, -1.

CCC(C)n1c(=O)c2ccccc2n(Cc2nc(-c3ccc(OC)c(OC)c3)no2)c1=O (centres undefined): 1
COc1cc(OC)c(NC(=O)Cn2cccc2-c2nc(-c3ccc4c(c3)OCO4)no2)cc1Cl: 1
Cc1ccc(-c2cc3c4nnc(SCC(=O)Nc5ccc(F)cc5)n4ccn3n2)cc1C: 1

Field: next molecule
Is it the case that Cc1ccc(NC(=O)N2CCCC(C)(C(=O)NCc3ccccc3)C2)c(C)c1 (centres undefined) has RP-LC retention time reaching or exceeding 800 s?
1

* * *

experiment: gradient 5% acetonitrile 3 min, to 50% in 2 min, to 85% in 15 min, held 3 min, 100 µL/min
test.parameters: column: Zorbax Extend-C18 2.1 x 50 mm; eluents: water / acetonitrile, 0.1% formic acid
// class assignment uses RP-LC retention time with these ranges: one = under 800 s, two = from 800 s up to 900 s, three = 900 s and over

CCC(CC)N1CCN(S(=O)(=O)c2cc(-c3[nH]ncc3C(=O)N(C)C)oc2C)CC1: one

# bin label for CC(=O)N1CCc2cc(N3CC(C(=O)NCc4ccc(C)c(C)c4)CC3=O)ccc21 (centres undefined)
one

# bin label for `CCS(=O)(=O)c1nc2ccc(NS(=O)(=O)c3cccc(F)c3)cc2s1`
two

# bin label for `Cn1nc(-c2nc(Cc3ccccc3)no2)c2c1CCN(C(=O)C1(c3ccccc3)CC1)C2`
three

* * *

experiment: gradient 5% acetonitrile 3 min, to 50% in 2 min, to 85% in 15 min, held 3 min, 100 µL/min
test.parameters: column: Zorbax Extend-C18 2.1 x 50 mm; eluents: water / acetonitrile, 0.1% formic acid
Is RP-LC retention time at least 700 s? Then Satisfied. If not, Not satisfied.

Use the examples below as a reference point.
Cc1nccn1Cc1nc(-c2cccc(F)c2)no1: Not satisfied
Cc1nn(-c2ccccc2)c2ccn(CC(=O)N3CCN(c4cccc(Cl)c4)CC3)c(=O)c12: Satisfied
CCOC(=O)N1CCC(NC(=O)CCc2cc3cc(OC)ccc3[nH]c2=O)CC1: Not satisfied

Field: next compound
Is it the case that CN1CCN(c2ncc3c(n2)CC(c2ccc(Cl)cc2)CC3=O)CC1 (stereo not given) has RP-LC retention time reaching or exceeding 700 s?
Not satisfied

* * *

experiment: gradient 5% acetonitrile 3 min, to 50% in 2 min, to 85% in 15 min, held 3 min, 100 µL/min
test.parameters: column: Zorbax Extend-C18 2.1 x 50 mm; eluents: water / acetonitrile, 0.1% formic acid
property.label: RP-LC retention time (s)
Numbers only, in s.

Cc1ccc(NC(=O)CN2C(=O)CCS(=O)(=O)c3ccccc32)cc1: 761
Cc1ccc(-c2csc(NC(=O)c3sc(-c4ccccc4)nc3C)n2)cc1C: 1390
Cc1nc(CCNC(=O)C2CCN(S(=O)(=O)c3ccc(Br)s3)CC2)cs1: 759
COc1ccc(-c2nn3c(-c4ccc5ccccc5n4)nnc3s2)cc1OC: 886
COCc1nc2cccnc2n1C1CCN(C(=O)Nc2ccc(OC)c(OC)c2)CC1: 638

Record RP-LC retention time per entry; entries follow.
1. O=C(CCc1c(-c2ccc(Cl)cc2)nc2ccccn12)NCCCc1ccccc1
2. Cc1ccc(CN2CCCC(c3nc(C(C)C)no3)CCNC(=O)CC2)s1 (stereo not given)
3. O=C(C1CC(=O)N(c2n[nH]c3cccc(F)c23)C1)N1CCN(c2cccc(Cl)c2)CC1 (stereo not given)
4. CCn1cc(-c2nc(CC(=O)Nc3ccccc3C)cs2)c2cccnc21

1. 719
2. 661
3. 837
4. 980
